Data provenance is PubChem BioAssay.

normalized thallium flux reference
Biological target: Solute carrier family 12 member 5 (Homo sapiens) (UniProt Q9H2X9)
Sequence (Q9H2X9 whole entry, looked up): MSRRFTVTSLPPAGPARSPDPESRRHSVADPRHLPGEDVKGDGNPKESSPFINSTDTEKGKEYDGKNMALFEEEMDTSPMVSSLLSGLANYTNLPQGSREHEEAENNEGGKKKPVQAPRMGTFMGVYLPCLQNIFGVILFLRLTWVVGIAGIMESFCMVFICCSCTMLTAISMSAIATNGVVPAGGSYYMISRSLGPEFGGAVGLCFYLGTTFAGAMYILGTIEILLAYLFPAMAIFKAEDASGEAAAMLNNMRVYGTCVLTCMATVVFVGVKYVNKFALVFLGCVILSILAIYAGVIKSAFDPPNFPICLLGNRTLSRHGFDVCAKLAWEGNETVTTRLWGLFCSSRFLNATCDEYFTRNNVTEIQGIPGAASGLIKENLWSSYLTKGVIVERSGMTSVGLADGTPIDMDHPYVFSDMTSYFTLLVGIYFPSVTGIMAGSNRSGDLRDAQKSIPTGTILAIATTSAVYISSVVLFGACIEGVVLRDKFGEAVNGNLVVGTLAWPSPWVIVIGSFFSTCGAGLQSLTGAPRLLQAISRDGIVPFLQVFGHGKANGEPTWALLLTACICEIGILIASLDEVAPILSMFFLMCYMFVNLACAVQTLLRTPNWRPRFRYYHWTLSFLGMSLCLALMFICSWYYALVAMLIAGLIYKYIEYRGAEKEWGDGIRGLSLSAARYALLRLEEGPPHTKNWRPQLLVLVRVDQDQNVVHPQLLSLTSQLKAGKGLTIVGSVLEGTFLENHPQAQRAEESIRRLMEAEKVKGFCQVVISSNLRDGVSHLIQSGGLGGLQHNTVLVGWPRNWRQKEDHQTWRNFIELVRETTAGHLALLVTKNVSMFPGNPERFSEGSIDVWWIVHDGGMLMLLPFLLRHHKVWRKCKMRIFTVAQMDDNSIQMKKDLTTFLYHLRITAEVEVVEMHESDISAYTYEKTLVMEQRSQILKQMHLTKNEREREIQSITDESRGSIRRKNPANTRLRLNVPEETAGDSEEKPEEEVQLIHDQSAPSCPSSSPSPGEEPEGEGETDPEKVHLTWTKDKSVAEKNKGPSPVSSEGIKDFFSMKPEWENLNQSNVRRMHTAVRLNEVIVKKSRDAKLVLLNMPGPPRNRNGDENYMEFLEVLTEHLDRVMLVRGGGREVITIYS
Assay: KCC2 modulators without ouabain present, confirmation, cell-based, HEK293 KCC2, thallium flux, FluoZin2, secondary assay 2 (AID 1715);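 further: raw slope with 0.1% DMSO as baseline and bumetanide as block control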
Conditions: HEK293-KCC2, thallium flux FluoZin2 fluorescence; at 10 µM; actives lie on both sides; F/F0 rise rate, 10–20 s post-thallium
Some of the results follow. Inconclusive results are not listed.
Form field (numeric): enter value without unit.

compound: CC(=O)NNc1cc(=O)c2c(=O)n(C)c(=O)n(C)c2[nH]1
systemUnderTest: Solute carrier family 12 member 5 (Homo sapiens) (UniProt Q9H2X9)
normalized thallium flux: 0.0281

Task: Suppose we examine the compound CC/S(CC1CC1(Cl)Cl)=N\S(=O)(=O)c1ccc(C)cc1 (stereo not given) ; what normalized thallium flux value has been reported?
Output: 0.0348

Task: What measured normalized thallium flux goes with Cc1ccc(C2CC(=O)NC(SCC(=O)OCc3ccccc3)=C2C#N)o1 (stereo not given) ?
Output: 0.0273

Task: Quick one: normalized thallium flux of "COc1ccc(-n2c(=S)[nH]c3sc4c(c3c2=O)CCc2ccccc2-4)cc1" ?
Output: 0.0334

Task: Entry under review: "COc1ccccc1N1CCN(C(=O)CSc2ncnc3c2cnn3-c2ccc(C)c(C)c2)CC1" . Reported normalized thallium flux?
Output: 0.029

---

Reported inhibition values follow for various compounds
Test: inhibitors of TNFa-induced NFkB p65 translocation, primary screen, imaging, HUVEC, MLSMR starter and 10KST1 sets (AID 438);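 further: compound added about 3h40 before a 20 min TNFalpha stimulation; signal is the nuclear over cytoplasmic p65 intensity ratio per well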
Conditions: HUVEC TNFa-induced p65 nuclear translocation; at 2 µM, stronger effect = higher value, 0% TNFa-plus-vehicle, 100% no-TNFa wells
Numeric only. Scale: %

compound: CCNc1nc(Oc2ccccc2)nc(OC(C)C(=O)OCC)n1 (stereo not given)
valueType: inhibition
dataValue: 1.4
//
compound: Cc1c(C=NCCOCc2ccccc2)cnn1C
valueType: inhibition
dataValue: 0.8
//
compound: COC(=O)C(NC(C)=O)(Nc1nc2c(s1)CCCC2)C(F)(F)F (stereo not given)
valueType: inhibition
dataValue: -7.5
//
compound: COc1ccccc1N1CCN(CC(O)COc2cccc3ccccc23)CC1 (stereo not given)
valueType: inhibition
dataValue: -3.6
//
compound: CCNCc1cc2cc(C)ccc2[nH]c1=O
valueType: inhibition
dataValue: -5.2
//
compound: Cn1c(SCC(=O)N2CCOCC2)nnc1-c1ccc(Cl)cc1Cl
valueType: inhibition
dataValue: -9.4
//
compound: C=CCSc1nc(C)c(CC=C)c(=O)[nH]1
valueType: inhibition
dataValue: -4.7
//
compound: CC(NCCC(c1ccccc1)c1ccccc1)c1ccccc1 (stereo not given)
valueType: inhibition
dataValue: -0.2
//
compound: c1csc(Cc2nn3c(-c4ccncc4)nnc3s2)c1
valueType: inhibition
dataValue: -1.9

Now take the following compound into account.
Task: Bench note: what inhibition did CC[C@]1(O)CC2CN(CCc3c([nH]c4ccccc34)[C@@](C(=O)OC)(c3cc4c(cc3OC)N(C=O)[C@H]3[C@@](O)(C(=O)OC)[C@H](OC(C)=O)[C@]5(CC)C=CCN6CC[C@]43[C@@H]65)C2)C1 (stereo not given in full) show?
Output: 31.7

---

Target: Voltage-gated potassium channel subunit beta-2 (Rattus norvegicus) (UniProt P62483)
Sequence (P62483 whole entry, looked up): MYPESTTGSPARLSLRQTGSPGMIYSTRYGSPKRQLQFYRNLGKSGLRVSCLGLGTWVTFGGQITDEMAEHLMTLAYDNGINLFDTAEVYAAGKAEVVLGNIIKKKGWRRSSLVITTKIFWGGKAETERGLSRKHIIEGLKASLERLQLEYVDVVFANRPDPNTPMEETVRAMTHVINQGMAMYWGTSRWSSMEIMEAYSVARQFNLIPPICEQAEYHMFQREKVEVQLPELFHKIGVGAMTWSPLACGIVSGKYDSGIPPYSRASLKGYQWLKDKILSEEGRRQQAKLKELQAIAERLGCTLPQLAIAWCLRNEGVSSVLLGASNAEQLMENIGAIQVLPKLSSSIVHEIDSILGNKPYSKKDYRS
Test: KvBeta positive modulators, primary screen, biochemical, NADPH fluorescence (AID 623);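 further: fluorescence intensity change per second fitted from 20 to 320 s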
Conditions: Recombinant KvBeta, NADPH fluorescence decrease slope, 10 min; at 10 µM; stronger effect = lower value
valueType: NADPH fluorescence slope
Note: the reply should be a number with no unit written.

Here are 8 compounds together with their reported answers.
compound: CCNCc1cc2cc(C)ccc2[nH]c1=O
NADPH fluorescence slope: -4.8e-05
//
compound: c1cncc(-c2nnc3sc(-c4ccco4)nn23)c1
NADPH fluorescence slope: -8.1e-06
//
compound: CC1CCc2cc(F)cc3c(O)c(C(=O)NCC4CCCO4)c(=O)n1c23 (centres undefined)
NADPH fluorescence slope: 1.7e-06
//
compound: Cn1c(N2CCOCC2)nc2c1c(=O)n(Cc1ccc(Cl)cc1)c(=O)n2C
NADPH fluorescence slope: -3.4e-05
//
compound: Fc1ccccc1-c1nc(NCCCN2CCOCC2)c2ccccc2n1
NADPH fluorescence slope: -1.9e-05
//
compound: CCO/C([O-])=N/c1c[n+](N2CCOCC2)no1
NADPH fluorescence slope: -6e-05
//
compound: CCOC(=O)c1c(C)n(C)c2ccc(OC)c(NC(=O)c3cccs3)c12
NADPH fluorescence slope: -0.00012
//
compound: COc1ccccc1N1CCN(C2CCN(C(=O)c3cc(OC)c(OC)c(OC)c3)CC2)CC1
NADPH fluorescence slope: 2.2e-05

Task: Give its NADPH fluorescence slope value. Item: "CC(C)(C)c1ccc(O)c(N)c1"
Output: -7e-05

Task: Can you look up the measured NADPH fluorescence slope of "C[C@]12CC[C@@H]3c4ccc(O)cc4CC[C@H]3[C@@H]1CCC2=O" for me?
Output: -3.3e-05

Task: Need NADPH fluorescence slope, item "COc1ccccc1-c1nnc2sc(C3CCCCC3)nn12"
Output: -0.000298

Task: Entry "CC1(C)CC(=O)C(CCCN2C(=O)c3ccccc3C2=O)C(=O)C1" has what NADPH fluorescence slope?
Output: -1.5e-05

Task: Request the reported NADPH fluorescence slope associated with "CCOC(=O)N1CCN(C(=O)c2cn(CC)c3cc(N4CCN(C)CC4)c(F)cc3c2=O)CC1"
Output: 1.3e-05
